B1: library; numbered along this chain (parent)
chain: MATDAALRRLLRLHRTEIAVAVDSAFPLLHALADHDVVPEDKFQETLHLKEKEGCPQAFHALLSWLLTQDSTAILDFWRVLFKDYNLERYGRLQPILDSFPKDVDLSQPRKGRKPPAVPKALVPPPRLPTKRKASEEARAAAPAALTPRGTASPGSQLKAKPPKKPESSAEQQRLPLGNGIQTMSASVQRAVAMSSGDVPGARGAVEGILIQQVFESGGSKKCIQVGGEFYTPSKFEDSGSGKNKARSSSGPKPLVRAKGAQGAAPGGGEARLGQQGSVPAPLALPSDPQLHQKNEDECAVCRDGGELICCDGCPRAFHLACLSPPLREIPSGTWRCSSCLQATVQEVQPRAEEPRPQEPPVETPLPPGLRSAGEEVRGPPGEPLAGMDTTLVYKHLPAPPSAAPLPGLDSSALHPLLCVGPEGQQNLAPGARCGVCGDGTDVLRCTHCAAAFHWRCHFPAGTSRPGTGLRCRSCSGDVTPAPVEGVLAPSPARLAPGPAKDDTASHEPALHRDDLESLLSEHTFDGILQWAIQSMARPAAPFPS

Variants of: B1
TEST_SUMMARY: AIRE transcriptional activation functional score (insulin promoter-GFP; nonsense median 0, synonymous median 1) (normalised score); higher = higher AIRE activity (more reporter activation)
DETAILS: with insulin promoter-GFP reporter in HEK293
PROPERTY_LABEL: AIRE transcriptional activation functional score
Number only, no unit.

So what does the record say about AIRE transcriptional activation functional score for "A265G" ?
0.964

Subsequent entry: "R378V"
0.869

Same question for "G112C" please.
0.924

Here is the next variant: "H454S"
-0.00319

Further, for "G431V" ?
1.13

Try this variant too: "A496F"
1.07

Likewise for "S187Y" ?
0.152

Let us now turn to "Q342G"
0.963

Here is the next variant: "L488Q"
0.827

Same lookup for "P252N" , please.
1.41

Also, "H523W" please.
-0.242

Same for "G178A"
0.405

Can you handle "P166G" next?
1.61

Queued: "Q213L"
0.173

How about this variant: "I330C"
0.866

Same read-out for "P325M" ?
1.15

# repeat for "Y394C"
0.576

// next record "G305C"
1.06

And "G440P" ?
1.25

Record: "K50W"
0.149

Okay, and "A281V" ?
0.872

Same read-out for "Q57F" ?
0.269

// same read-out, input: "K83D"
-0.0712

What about "A450G" ?
0.382

Now this one: "D76L"
0.535

Also, "C475Y" please.
0.0941

Also "P357M" , if possible.
1.29

Try the variant "S153T"
0.818

// repeat for "G435S" and report
0.74

Could you do the same for "P405I" , please?
1.59

Same lookup for "V226T" , please.
0.799

Please do the same for "Y90A" as well.
0.366

Also "P39K" , if possible.
-0.314

Input "E376L"
1.17

And what about the variant "A121N" ?
1.1

Proceed to "I528P"
0.0858

Likewise for "Q290N" ?
1.19

And "S474F" ?
1.12

And the next one, "V123P" ?
0.742

// repeat for "A493T" and report
0.878

Next up: "S518I"
0.907

Same for "E45V"
0.134

Can you check "S287I" next?
1.07

Then this variant: "D526K"
0.177

What do we get for "V487Q" ?
0.492

Thanks! And "A413D" ?
0.666

Would you mind doing "L283G" as well?
0.798

Same lookup for "G462A" , please.
0.924

Entry to check: "I18D"
0.751

Can you check "G54M" next?
0.663

"R513V" , same question.
0.873

And "F525E" ?
-1.43

Moving on to "A532G"
0.0621

Also check "C337Q"
1.5

Same read-out for "P176F" ?
1.46

"Q212I" ?
-0.568

Proceed to "L495E"
1

Quick one: "R257T"
0.86

Same again, this time with "L29T"
-0.208

Similarly, "A145T" ?
1.21

Okay, and "S338Y" ?
1.11

"K83S" ?
0.122

Same again, this time with "I224F"
0.959

And "A160Y" ?
1.08

Continue with "H292E"
-0.172

Thanks! And "P116I" ?
1.36

Next record, please: "P401C"
1.7

Can you handle "A61N" next?
0.59

Record: "P254V"
1.27
